Tested on: CCRF-CEM leukemia
test: NCI tumour cell line growth inhibition, 48 h; in the data active = GI50 below about 0.43 µM; inactive = the rest
# output must be one of active, inactive

Check out these entries, answers already filled in.
compound: CCC[CH2][Sn]1([CH2]CCC)[O]CC(Cc2ccccc2)[O]1 (centres undefined)
category: inactive
//
compound: COc1cc(C#Cc2ccc(=O)oc2C#Cc2ccccc2)cc(OC)c1OC
category: inactive
//
compound: C=C1C(=O)O[C@H]2C[C@@H]1CC/C(C)=C/CC/C(C)=C/CC[C@H]2C
category: inactive

# ---- query compound ----
Name the outcome recorded for "CCCNNC(=O)/C=C/c1ccc(CNCCc2c(C)[nH]c3ccccc23)cc1" in the assay.
active
